experiment: Metabolic stability in mouse liver microsomes; assay type: in vitro ADME; details: mouse, liver microsomes, pH 7.4, Mouse, Compound Conc = 0.5 μM; read-out: Half life (t½)
Each entry below carries its recorded half-life at 0.5 μM.

| COMPOUND | REPORTED PROPERTY | RESULT |
| --- | --- | --- |
| CC(C)OC(=O)c1ccc(NC23CC4CC(CC(C4)C2)C3)c(/N=C\c2cncnc2)c1 | half-life at 0.5 μM | 1.29 h |
| CC(C)(C)OC(=O)c1ccc(NC23CC4CC(CC(C4)C2)C3)c(/N=C\c2cncnc2)c1 | half-life at 0.5 μM | > 1.5 h |
| CCOc1ccc2ccc(=O)oc2c1 [Ethoxycoumarin, reference compound] | half-life at 0.5 μM | 0.0433 h |
| CCOC(=O)c1ccc(NC23CC4CC(CC(C4)C2)C3)c(NCc2cncnc2)c1 | half-life at 0.5 μM | 0.0333 h |

# ---- query compound ----
Query: Give half-life at 0.5 μM for the following compound: CCOC(=O)c1ccc(NC23CC4CC(CC(C4)C2)C3)c(/N=C\c2cncnc2)c1
Response: 2.57 h
